biological target: T1, human CD33 extracellular domain (human, UniProt P20138 18-259); experiment: SPR, Fab captured, 37C;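 also: surface plasmon resonance with Fabs captured on anti-Fab surface, soluble monomeric CD33 as analyte at several concentrations, double-referenced 1:1 model fit, KD as koff/kon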
T1 construct: soluble monomeric ECD; also called human CD33 ECD; hCD33
Property label: koff (s⁻¹)
Numeric answer only, unit s⁻¹ assumed.

Reference set (4 entries):
binder="ADI-11826 Fab (Fab, V domains shown, Fab fragment; also called Ab26) VH: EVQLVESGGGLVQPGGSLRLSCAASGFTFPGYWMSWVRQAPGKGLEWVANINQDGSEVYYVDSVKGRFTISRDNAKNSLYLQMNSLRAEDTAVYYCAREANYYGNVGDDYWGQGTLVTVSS VL: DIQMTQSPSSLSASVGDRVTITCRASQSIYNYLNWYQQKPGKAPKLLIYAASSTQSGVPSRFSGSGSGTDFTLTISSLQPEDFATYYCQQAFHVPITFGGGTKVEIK" reading=0.00463
binder="ADI-11815 Fab (Fab, V domains shown, Fab fragment; also called Ab7) VH: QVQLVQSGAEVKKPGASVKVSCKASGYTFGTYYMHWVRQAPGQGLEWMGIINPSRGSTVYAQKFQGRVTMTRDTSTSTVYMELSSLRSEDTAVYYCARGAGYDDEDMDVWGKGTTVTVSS VL: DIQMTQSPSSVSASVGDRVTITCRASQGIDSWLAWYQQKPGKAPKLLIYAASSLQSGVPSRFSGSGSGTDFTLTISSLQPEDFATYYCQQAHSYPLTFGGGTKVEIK" reading=7.91e-05
binder="Fab fragment from Lintuzumab (Fab, V domains shown, Fab fragment) VH: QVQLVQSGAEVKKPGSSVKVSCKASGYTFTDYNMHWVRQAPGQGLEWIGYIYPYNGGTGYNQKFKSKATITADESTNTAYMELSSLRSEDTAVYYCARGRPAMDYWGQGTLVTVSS VL: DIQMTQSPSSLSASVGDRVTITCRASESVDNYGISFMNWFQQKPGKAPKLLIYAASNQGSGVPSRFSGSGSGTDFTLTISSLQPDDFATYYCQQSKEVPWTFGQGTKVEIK" reading=0.0122
binder="ADI-11812 Fab (Fab, V domains shown, Fab fragment; also called Ab24) VH: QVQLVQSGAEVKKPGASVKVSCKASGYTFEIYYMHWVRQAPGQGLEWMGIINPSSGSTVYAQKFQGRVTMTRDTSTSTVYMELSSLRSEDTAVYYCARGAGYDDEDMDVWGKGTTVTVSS VL: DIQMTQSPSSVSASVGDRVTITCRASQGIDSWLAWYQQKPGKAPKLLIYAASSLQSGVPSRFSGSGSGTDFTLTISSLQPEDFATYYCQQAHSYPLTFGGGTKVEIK" reading=0.000486

Then there is this binder:
Query: Sample ADI-11835 Fab (Fab, V domains shown, Fab fragment; also called Ab10; I35) VH: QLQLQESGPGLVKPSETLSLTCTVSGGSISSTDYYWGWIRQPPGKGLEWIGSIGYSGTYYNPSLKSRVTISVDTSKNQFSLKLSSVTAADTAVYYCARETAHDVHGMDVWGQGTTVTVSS VL: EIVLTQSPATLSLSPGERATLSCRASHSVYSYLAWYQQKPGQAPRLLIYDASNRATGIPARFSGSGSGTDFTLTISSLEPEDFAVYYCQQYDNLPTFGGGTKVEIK — what was its koff?
Reply: 0.00143
